Here the recorded Growth Rate is given for each entry.
System: U2OS
Assay: Incucyte cell viability with U2OS; also: unitless GR value; below 1 slowed growth and below 0 cell loss
Format: toxicity, cell-based
Conditions: human, 6 h, 10 µM, compound concentration 10 uM, replicate number 1
No unit in the answer, please; the number alone is enough.

Study these solved cases before continuing.
Compound | Growth Rate
Nc1ncnc2c1c(I)cn2[C@@H]1O[C@H](CO)[C@@H](O)[C@H]1O | -0.39
O=C1NCCc2c(OCCCCN3CCCCC3)cccc21 | 0.02
NC(=O)c1ccc(-c2nc(-c3ccc4c(c3)OCCO4)c(-c3ccccn3)[nH]2)cc1 | 0.21
C[C@@H]1CC(=O)N(C2CC2)N=C1c1ccc(NC(=O)N2Cc3ccncc3C2)cc1 | 0.59
CCC(=O)O[C@]1(C(=O)CCl)[C@@H](C)C[C@H]2[C@@H]3CCC4=CC(=O)C=C[C@]4(C)[C@@]3(F)[C@@H](O)C[C@@]21C [CLOBETASOL PROPIONATE] | -0.15
CN(C1CCc2c(c3ccccc3n2CC(=O)O)C1)S(=O)(=O)c1ccc(F)cc1 (centres undefined) | 0.61
O=C(Nc1cccc(C(F)(F)F)c1)c1cc(Cl)ccc1O | 0.96
CCS(=O)(=O)Nc1cccc(Oc2cc(F)cc(Nc3ccc(I)cc3F)c2NS(=O)(=O)C2CC2)c1 | 0.85

# return recorded Growth Rate for input O=C(Nc1ccc(Oc2ccc(Cl)cc2)c(Cl)c1)c1cc(I)cc(I)c1O [RAFOXANIDE]
0.57

* * *

Test system: Fibroblast
Assay: Incucyte cell viability with human fibroblast; also: unitless GR value; below 1 slowed growth and below 0 cell loss
Format: toxicity, cell-based
Settings: 12 h, 10 µM, compound concentration 10 uM, replicate number 2
Quick reference for Growth Rate among some compounds
Please reply with the value in numeric form only.

Here are 10 compounds together with their reported answers.
Compound | Growth Rate
OC(c1ccc(-c2ccc(CN3CCN(Cc4ccncc4)CC3)cc2)c(F)c1)(C(F)(F)F)C(F)(F)F | -0.38
Cc1nc2cccnc2n2c(-c3cc([C@@]4(O)CCCOC4)ccc3Cl)nnc12 | 0.67
Cc1cc(OC2CCS(=O)(=O)CC2)cc(C)c1-c1cccc(COc2ccc(C(=O)O)c(F)c2)c1 | 0.57
FC(F)(F)c1ccc(CNc2ccc(Cc3c[nH]c4ncc(Cl)cc34)cn2)cn1 [PEXIDARTINIB] | 0.34
CN(CC(=O)Nc1ccc(F)c(F)c1F)C(=O)c1ccc2c(c1)OCCO2 | 0.55
Cc1cc([N+](=O)[O-])c(NS(=O)(=O)c2cccc(C(=O)O)c2)cc1-c1cccnc1 [ALOFANIB] | 0.74
CO[C@@H](C)CN1CC[C@]2(C)c3cc(O)ccc3C[C@H]1C2(C)C.Cl | 0.89
CN(C)C(=O)Cn1cc(-c2nc(C3(c4ccc(-c5cnc(N)nc5)cc4)CC3)no2)cn1 [BI 0153] | 0.4
Cc1ccc(-c2cn3nc(C(=O)NC4(c5ccc(F)cc5)CN(C)C4)c(C(C)C)c3c(=O)[nH]2)cc1C | 0.19
Cn1c(=O)n(CCCO)c(=O)c2c1nc(Oc1cccc(Cl)c1)n2Cc1ccc(Cl)cc1 | 0.66

GET Growth Rate | system: Fibroblast | item: C=C(C)[C@H]1CN[C@H](C(=O)O)[C@H]1CC(=O)O [KAINIC ACID]
0.83

Give Growth Rate only, for COC[C@@H](CC(C)C)NC1=N/C(=C\c2ccc3ncsc3c2)C(=O)N1C , using Fibroblast data.
0.07

Fill in Growth Rate for CCC(C)(C)CC[C@H](NC(=O)N1CCOCC1)C(=O)NC1(C#N)CCN(C)CC1 tested with Fibroblast.
0.5

* * *

Recorded Growth Rate, one value per entry.
Test system: U2OS
Test: Incucyte cell viability with U2OS; also: unitless GR value; below 1 slowed growth and below 0 cell loss
Format: toxicity, cell-based
Details: human, 12 h, 10 µM, compound concentration 10 uM, replicate number 2
Respond numerically, and do not add a unit to the figure.

Compound | Growth Rate
CC1CCN(C(=O)[C@@H](CCn2cccc2C#N)NS(=O)(=O)c2cccc3[nH]ccc23)CC1 | 0.81
O=C1CSC(=O)N1C(CCc1ccncc1)COc1ccc(-c2cccc([N+](=O)[O-])c2)cc1 (stereo unspecified) | 0.94
CO[C@H]1CC[C@H](N(c2cc(F)c(Oc3ncc(Cn4nccn4)cc3C(F)(F)F)cc2C(=O)O)C(=O)[C@H]2CC[C@H](C)CC2)CC1 | 0.82
C[C@H](c1ccnc(Nc2nc3ccc(-c4cc(N(C)C)ncn4)cc3[nH]2)c1)N1CCN(C(=O)CC(F)(F)F)CC1 [BAY-985] | 0.94
Cc1cc([N+](=O)[O-])c(NS(=O)(=O)c2cccc(C(=O)O)c2)cc1-c1cccnc1 [ALOFANIB] | 0.55

Tell me Growth Rate reported for C=CC[C@@H]1/C=C(\C)C[C@H](C)C[C@H](OC)[C@H]2O[C@@](O)(C(=O)C(=O)N3CCCC[C@H]3C(=O)O[C@H](/C(C)=C/[C@@H]3CC[C@@H](O)[C@H](OC)C3)[C@H](C)[C@@H](O)CC1=O)[C@H](C)C[C@@H]2OC.O [TACROLIMUS]
0.7

* * *

Test system: HEK-293T
Test: Incucyte cell viability with HEK293T; also: unitless GR value; below 1 slowed growth and below 0 cell loss
Format: toxicity, cell-based
Conditions: human, 0 h, 10 µM, compound concentration 10 uM, replicate number 1
Rule: 1 (yes) for Growth Rate not less than 0.6, 0 (no) for anything less.

Is it the case that CC[N+](CC)(CC)CCOc1ccc(/C=C/c2ccccc2)cc1.[I-] [STILONIUM IODIDE] has Growth Rate reaching or exceeding 0.6?
1 (yes)

Kindly determine if Growth Rate recorded for CC(C)(O)C(=O)N1CCN(c2ccc(C(F)(F)F)c(C3=C(c4c[nH]c5ccccc45)C(=O)NC3=O)c2)CC1 is above or exactly 0.6.
1 (yes)

Could you tell me if the measured Growth Rate of N#Cc1ccnc(Nc2cc(C3CCN(C4COC4)CC3)cc(N3CCC(F)(F)C3)n2)c1 reaches 0.6 or more?
0 (no)

* * *

Test system: Fibroblast
Assay: Incucyte cell viability with human fibroblast; also: unitless GR value; below 1 slowed growth and below 0 cell loss
Type: toxicity, cell-based
Conditions: 18 h, 10 µM, compound concentration 10 uM, replicate number 2
Examples of molecules with documented Growth Rate follow.
Give the figure by itself; no unit, no explanation.

Examples with answers:
Molecule | Measured result
COc1ccc(Br)cc1S(=O)(=O)NC(=O)/C=C/c1cc(Cl)ccc1Cc1ccc2ccccc2c1 | 0.56
N=C(N)NCCC[C@H](NC(=O)C(c1ccccc1)c1ccccc1)C(=O)NCc1ccc(CNC(N)=O)cc1.O=C(O)C(F)(F)F | 0.75
FC(F)(F)c1ccc(Nc2ncnc3cc(-c4ncccc4C(F)(F)F)ccc23)cc1 | 0.27

Next molecule, Growth Rate to be filled in.
Answer with reported Growth Rate of CCOC(=O)/N=C(\N)c1ccc(OCc2cccc(COc3ccc(C(C)(C)c4ccc(OC(=O)OCC)cc4)cc3)c2)cc1
0.76

* * *

System: HEK-293T
Assay: Incucyte cell viability with HEK293T; also: unitless GR value; below 1 slowed growth and below 0 cell loss
Type: toxicity, cell-based
Conditions: human, 18 h, 10 µM, compound concentration 10 uM, replicate number 1
// thresholds for Growth Rate classes: bottom bin: < 0.3; middle bin: ≥ 0.3 and < 0.8; top bin: ≥ 0.8

Place this compound in its band: CC(C)(C)c1cc(NC(=O)c2csc(Nc3ccc(Cl)cc3)n2)no1
top bin

Consider NS(=O)(=O)c1cncc(-c2nc(NCc3ccccn3)c3c(-c4ccccc4)cccc3n2)c1 [BMS-919373] . To which Growth Rate class does it belong?
middle bin

# bin lookup: classify CCN(CC)CCO[C@H]1CC[C@@]2(C)C(=CC[C@@H]3[C@@H]2CC[C@]2(C)C(=O)CC[C@@H]32)C1.Cl by its Growth Rate
middle bin

Bin this entry: CN(C(=O)c1ccccc1)c1ccc2c(c1)nc(NC(=O)c1ccc(Br)s1)n2CCC(N)=O
middle bin

GET /class?item= O=C(CCCCCCc1ccccc1)c1ncc(-c2ccccn2)o1
middle bin

Quick check: band for Cc1nn(C)c(COc2ccc(N3CCN(S(=O)(=O)N(C)C)CC3)cc2)c1-c1cccc2c(CCCOc3cccc4ccccc34)c(C(=O)O)n(CCN3CCOCC3)c12
top bin

* * *

Test system: Fibroblast
Test: Incucyte cell viability with human fibroblast; also: unitless GR value; below 1 slowed growth and below 0 cell loss
Type: toxicity, cell-based
Conditions: 0 h, 10 µM, compound concentration 10 uM, replicate number 2
Label rule, in plain words: Growth Rate of -0.4 and up is true (1), under -0.4 is false (0).

Compound | Assigned label
CC(=O)Nc1c(F)cc(C(=O)N[C@H]2CC[C@H](O)CC2)cc1O[C@@H](C)c1ccccc1 | true (1)
CCN1CCN(Cc2ccc(NC(=O)c3ccc(C)c(NC(=O)c4cncc(-c5cccs5)c4)c3)cc2C(F)(F)F)CC1 | false (0)
O=C1CSC(=O)N1C(CCc1ccncc1)COc1ccc(-c2cccc([N+](=O)[O-])c2)cc1 (stereo not drawn) | false (0)
NC1(c2ccc(-c3nc4c(O)ccnn4c3-c3ccccc3)cc2)CCC1 | true (1)
O=C1CN(c2ccccc2F)C(NCCN2CCOCC2)=C1c1nc2cc(Br)ccc2c(=O)[nH]1 | true (1)
COC[C@@H](C)N[C@H]1CC[C@H](Nc2cc(-c3cccc(NCC4(C#N)CCOCC4)n3)c(Cl)cn2)CC1 | false (0)

Now for another entry.
Check the entry CN[C@@H](C)C(=O)N[C@H]1CN(C(=O)CC(C)C)CC[C@H]2CC[C@@H](C(=O)NC(c3ccccc3)c3ccccc3)N2C1=O : does Growth Rate equal or exceed -0.4?
true (1)
